Origin of values: patent US20160237119A1

target: T1, c-Met-Fc chimera protein (UniProt P08581 25-932, limits assumed); experiment: SPR presumed (Biacore as in 9-1; method not given), c-Met-Fc on chip
T1 construct: Captured on the SPR chip by an anti-IgG antibody; not shown: Fc part
T1 sequence (P08581 25-932 limits assumed, change not shown): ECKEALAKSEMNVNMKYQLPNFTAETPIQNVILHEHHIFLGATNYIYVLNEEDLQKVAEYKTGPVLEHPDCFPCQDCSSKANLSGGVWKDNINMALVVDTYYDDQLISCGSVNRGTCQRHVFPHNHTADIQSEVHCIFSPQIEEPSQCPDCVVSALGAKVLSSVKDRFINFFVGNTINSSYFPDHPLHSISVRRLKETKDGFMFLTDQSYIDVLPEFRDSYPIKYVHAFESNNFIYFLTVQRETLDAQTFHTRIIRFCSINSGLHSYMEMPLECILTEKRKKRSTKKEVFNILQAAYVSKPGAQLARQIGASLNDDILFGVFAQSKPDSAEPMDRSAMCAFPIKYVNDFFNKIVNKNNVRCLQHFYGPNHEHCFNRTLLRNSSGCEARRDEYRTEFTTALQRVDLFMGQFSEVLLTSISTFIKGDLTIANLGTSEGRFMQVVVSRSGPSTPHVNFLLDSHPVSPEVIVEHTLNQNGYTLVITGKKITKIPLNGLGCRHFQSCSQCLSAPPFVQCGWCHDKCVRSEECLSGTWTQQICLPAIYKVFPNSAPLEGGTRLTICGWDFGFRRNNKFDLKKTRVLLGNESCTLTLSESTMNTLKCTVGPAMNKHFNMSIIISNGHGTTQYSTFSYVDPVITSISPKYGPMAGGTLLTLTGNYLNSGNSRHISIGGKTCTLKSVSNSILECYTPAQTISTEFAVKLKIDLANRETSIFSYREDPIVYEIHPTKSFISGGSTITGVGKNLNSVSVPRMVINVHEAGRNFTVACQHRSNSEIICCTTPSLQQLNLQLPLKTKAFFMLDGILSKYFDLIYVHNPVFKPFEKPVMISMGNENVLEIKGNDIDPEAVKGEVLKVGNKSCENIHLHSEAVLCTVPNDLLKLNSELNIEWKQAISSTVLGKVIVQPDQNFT
Bridges are numbered along the chain shown (N, C = ends). Where no end group is shown, it is not given here. [ ]: non-standard residue; d: D form. NMeR = CN[C@@H](CCCNC(=N)N)C(=O)O; NMeF = CN[C@@H](Cc1ccccc1)C(=O)O; NMeT = CN[C@H](C(=O)O)[C@@H](C)O; NMeN = CN[C@@H](CC(N)=O)C(=O)O
readout: Kd (nM)

Answered examples (2):
{CH2CO}-YRQFNRRTHEVWNLDCG (thioether N-16; not fully specified (residues 1, 14); also: one N-methylated residue, position given only by label N14) [N14, N-methylated D4-3 peptide]: 290
{CH2CO}-YRQF[NMeN]RRTHEVWNLDCG (thioether N-16 (inferred)) [N5, N-methylated D4-3 peptide]: 200

(A) {CH2CO}-YRQFNRR[NMeT]HEVWNLDCG (thioether N-16) [D4-3-N8]
(B) {CH2CO}-YRQFNR[NMeR]THEVWNLDCG (thioether N-16) [D4-3-N7]
(C) {CH2CO}-Y[NMeR]QFNRRTHEVWNLDCG (thioether N-16 (inferred)) [N2, N-methylated D4-3 peptide]
(D) {CH2CO}-YRQ[NMeF]NRRTHEVWNLDCG (thioether N-16 (inferred)) [N4, N-methylated D4-3 peptide]
Ordering criterion: Kd; begin with the maximum. Enter labels, ranked according to the request.
A, B, D, C
(A: 220 nM, B: 130 nM, D: 79 nM, C: 14 nM)
